target: IRAK4 (Homo sapiens, UniProt Q9NWZ3); construct: knocking-in a HiBiT fusion tag into the C-terminal of the IRAK4 gene in 293T cells; host or cells: 293T cells, knock-in of HiBiT at the endogenous IRAK4 locus; experiment: IRAK4 degradation assay using the HiBiT Method; assay type: cell-based; conditions: 293T cells expressing HiBiT-tagged IRAK4; 6-hour incubation; Nano-Glo HiBiT Lytic Assay luminescence
PARAMETER: DC50

Q: # lookup: DC50 of CC(C)Oc1cc2nc(C3CCN(C(=O)CCN4CCC(c5ccc(NC6CCC(=O)NC6=O)cc5F)CC4)CC3)cn2cc1NC(=O)c1cccc(C(F)(F)F)n1 (stereo not drawn) [Example 8]
A: 0.01 to 0.1 µM

Q: # lookup: DC50 of CC(C)Oc1cc2nc(C3CCN(CCC(=O)N4CCC(c5ccc(C6CCC(=O)NC6=O)cc5)CC4)CC3)cn2cc1NC(=O)c1cccc(C(F)(F)F)n1 (stereo not drawn) [Example 32]
A: 0.1 to 0.5 µM

Q: # lookup: DC50 of CC(C)Oc1cc2nc(C3CCN(C(=O)C4CCCC5(CCN(C(=O)c6ccc(OC7CCC(=O)NC7=O)cc6)CC5)O4)CC3)cn2cc1NC(=O)c1cccc(C(F)(F)F)n1 (stereo not drawn) [Example 83]
A: 0.1 to 0.5 µM

* * *

Molecular target: IRAK4 (Homo sapiens, UniProt Q9NWZ3)
Construct: knocking-in a HiBiT fusion tag into the C-terminal of the IRAK4 gene in 293T cells; host or cells: 293T cells, knock-in of HiBiT at the endogenous IRAK4 locus
Sequence (Q9NWZ3 1-460): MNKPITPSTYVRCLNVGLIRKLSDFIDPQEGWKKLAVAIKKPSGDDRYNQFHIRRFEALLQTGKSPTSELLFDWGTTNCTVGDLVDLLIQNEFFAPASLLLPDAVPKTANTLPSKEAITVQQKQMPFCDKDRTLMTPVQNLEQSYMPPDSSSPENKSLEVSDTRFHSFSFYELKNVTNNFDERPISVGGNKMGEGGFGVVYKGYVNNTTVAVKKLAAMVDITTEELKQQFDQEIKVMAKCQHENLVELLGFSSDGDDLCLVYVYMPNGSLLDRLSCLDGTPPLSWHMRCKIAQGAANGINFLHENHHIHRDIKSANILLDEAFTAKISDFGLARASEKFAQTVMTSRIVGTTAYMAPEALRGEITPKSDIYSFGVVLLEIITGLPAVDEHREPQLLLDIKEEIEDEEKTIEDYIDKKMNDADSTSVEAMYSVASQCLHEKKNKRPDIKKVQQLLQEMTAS
Experiment: IRAK4 degradation assay using the HiBiT Method
Assay type: cell-based
Details: 293T cells expressing HiBiT-tagged IRAK4; 6-hour incubation; Nano-Glo HiBiT Lytic Assay luminescence
Provide the reported DC50 of each item.

Q: # lookup: DC50 of CC(C)Oc1cc2nc(C3CCN(CC(=O)N4CCC(c5ccc(OC6CCC(=O)NC6=O)cc5)CC4)CC3)cn2cc1NC(=O)c1cccc(C(F)(F)F)n1 (stereo not drawn)
A: 10 to 100 nM

Q: # lookup: DC50 of CC(C)Oc1cc2nc(C3CN(C(=O)CN4CCC(c5ccc(C6CCC(=O)NC6=O)cc5)CC4)C3)cn2cc1NC(=O)c1cccc(C(F)(F)F)n1 (stereo not drawn)
A: 100 to 500 nM

Q: # lookup: DC50 of CC(C)Oc1cc2nn(C3CCN(CC(=O)N4CCC(c5ccc(NC6CCC(=O)NC6=O)cc5F)CC4)CC3)cc2cc1NC(=O)c1cccc(C(F)(F)F)n1 (stereo not drawn)
A: 10 to 100 nM

* * *

Provide the reported DC50 of each item.
biological target: IRAK4 (Homo sapiens, UniProt Q9NWZ3); construct: knocking-in a HiBiT fusion tag into the C-terminal of the IRAK4 gene in 293T cells; host or cells: 293T cells, knock-in of HiBiT at the endogenous IRAK4 locus; assay: IRAK4 degradation assay using the HiBiT Method; assay type: cell-based; conditions: 293T cells expressing HiBiT-tagged IRAK4; 6-hour incubation; Nano-Glo HiBiT Lytic Assay luminescence

Q: # lookup: DC50 of CC(C)Oc1cc2nc(C3CCN(C(=O)CN4CCN(c5ccc(NC6CCC(=O)NC6=O)cc5)CC4)CC3)cn2cc1NC(=O)c1cccc(C(F)(F)F)n1 (centres unmarked)
A: 0.1 to 0.5 µM

Q: # lookup: DC50 of CC(C)Oc1cc2nc(C3CCN(CC(=O)N4CCC(c5cccc(NC6CCC(=O)NC6=O)c5)CC4)CC3)cn2cc1NC(=O)c1cccc(C(F)(F)F)n1 (centres unmarked)
A: 0.01 to 0.1 µM

Q: # lookup: DC50 of CC(C)Oc1cc2nc(C3CCN(CCCCc4ccc(NC5CCC(=O)NC5=O)cc4)CC3)cn2cc1NC(=O)c1cccc(C(F)(F)F)n1 (centres unmarked)
A: 0.1 to 0.5 µM

Q: # lookup: DC50 of CC(C)Oc1cc2nc(C3CCN(CCN4CCC(c5ccc(NC6CCC(=O)NC6=O)cc5F)CC4)CC3)cn2cc1NC(=O)c1cccc(C(F)(F)F)n1 (centres unmarked)
A: 0.1 to 0.5 µM

Q: # lookup: DC50 of CC(C)Oc1cc2nc(CCCNC(=O)CN3CCC(c4ccc(NC5CCC(=O)NC5=O)cc4)CC3)cn2cc1NC(=O)c1cccc(C(F)(F)F)n1 (centres unmarked)
A: 0.1 to 0.5 µM

Q: # lookup: DC50 of CC(C)Oc1cc2nc([C@H]3CC[C@H](CN4CCC(c5cccc(NC6CCC(=O)NC6=O)c5)CC4)CC3)cn2cc1NC(=O)c1cccc(C(F)(F)F)n1 (some centres unmarked)
A: 0.1 to 0.5 µM

Q: # lookup: DC50 of CC(C)Oc1cc2nc(C3CCN(CC(=O)N4CCN(Cc5ccc(NC6CCC(=O)NC6=O)cc5)CC4)CC3)cn2cc1NC(=O)c1cccc(C(F)(F)F)n1 (centres unmarked)
A: 0.1 to 0.5 µM

Q: # lookup: DC50 of CC(C)Oc1cc2nc(C3CCN(CC(=O)N4CCC(c5ccc(NC6CCC(=O)NC6=O)cc5)CC4)CC3)cn2cc1NC(=O)c1ccn(C)n1 (centres unmarked)
A: 0.01 to 0.1 µM

* * *

Provide the reported DC50 of each item.
Biological target: IRAK4 (Homo sapiens, UniProt Q9NWZ3)
Construct: knocking-in a HiBiT fusion tag into the C-terminal of the IRAK4 gene in 293T cells; host or cells: 293T cells, knock-in of HiBiT at the endogenous IRAK4 locus
Assay: IRAK4 degradation assay using the HiBiT Method
Format: cell-based
Conditions: 293T cells expressing HiBiT-tagged IRAK4; 6-hour incubation; Nano-Glo HiBiT Lytic Assay luminescence
Protocol: Selected compounds were tested in an IRAK4 degradation assay using the HiBiT Method. Phenol red-free Dulbecco's modified Eagle medium (DMEM) and fetal bovine serum (FBS) were purchased from Gibco (Grand Island, NY, USA). […] IRAK4 degradation was measured via the quantification of luminescent signals using the Nano-Glo© HiBiT Lytic Assay kit. […] Luminescence was acquired using an EnVision® Multilabel Reader (PerkinElmer, Santa Clara, CA, USA).

Q: Write down the reported DC50 of CC(C)Oc1cc2nc(C3CCN(CCCCCCc4ccc(NC5CCC(=O)NC5=O)cc4)CC3)cn2cc1NC(=O)c1cccc(C(F)(F)F)n1 (stereo not drawn) , test system: IRAK4 (Homo sapiens, UniProt Q9NWZ3).
A: 100 to 500 nM

Q: Write down the reported DC50 of CC(C)Oc1cc2nc(CCCCCCN3CCC(c4ccc(NC5CCC(=O)NC5=O)cc4)CC3)cn2cc1NC(=O)c1cccc(C(F)(F)F)n1 (stereo not drawn) , test system: IRAK4 (Homo sapiens, UniProt Q9NWZ3).
A: 100 to 500 nM

Q: Write down the reported DC50 of CC(C)Oc1cc2nc(C3CCN(CC(=O)N4CCC(c5ccc(NC6CCC(=O)NC6=O)cc5F)CC4)CC3)cn2cc1NC(=O)c1cccc(C(F)(F)F)n1 (stereo not drawn) , test system: IRAK4 (Homo sapiens, UniProt Q9NWZ3).
A: 10 to 100 nM

* * *

target: IRAK4 (Homo sapiens, UniProt Q9NWZ3); construct: knocking-in a HiBiT fusion tag into the C-terminal of the IRAK4 gene in 293T cells; host or cells: 293T cells, knock-in of HiBiT at the endogenous IRAK4 locus; experiment: IRAK4 degradation assay using the HiBiT Method; format: cell-based; conditions: 293T cells expressing HiBiT-tagged IRAK4; 6-hour incubation; Nano-Glo HiBiT Lytic Assay luminescence
PARAMETER: DC50

Q: # lookup: DC50 of CC(C)Oc1cc2nc(C3CCN(CC(=O)N4CCC(c5ccc(NC6CCC(=O)NC6=O)cn5)CC4)CC3)cn2cc1NC(=O)c1cccc(C(F)(F)F)n1 (stereo not shown)
A: 100 to 500 nM

Q: # lookup: DC50 of CC(C)Oc1cc2nc(C3CCN(CC(=O)N4CCN(CCc5ccc(NC6CCC(=O)NC6=O)cc5)CC4)CC3)cn2cc1NC(=O)c1cccc(C(F)(F)F)n1 (stereo not shown)
A: 10 to 100 nM

Q: # lookup: DC50 of CC(C)Oc1cc2nc(C3CCC(CN4CCC(c5ccc6c(c5)n(C)c(=O)n6C5CCC(=O)NC5=O)CC4)CC3)cn2cc1NC(=O)c1cccc(C(F)(F)F)n1 (stereo not shown)
A: 100 to 500 nM

Q: # lookup: DC50 of CC(C)Oc1cn2cc(C3CCN(CC(=O)N4CCC(c5ccc(NC6CCC(=O)NC6=O)cc5)CC4)CC3)nc2cc1NC(=O)c1cccc(C(F)(F)F)n1 (single isomer, unassigned) [Example 14]
A: 10 to 100 nM

Q: # lookup: DC50 of CC(C)Oc1cc2nc(C3CCN(CC(=O)N4CCC(c5ccc(C6(F)CCC(=O)NC6=O)cc5)CC4)CC3)cn2cc1NC(=O)c1cccc(C(F)(F)F)n1 (stereo not shown)
A: 100 to 500 nM

Q: # lookup: DC50 of CC(C)Oc1cc2nc([C@@H](Cc3ccccc3)NC(=O)CN3CCC(c4ccc(C5CCC(=O)NC5=O)cc4)CC3)cn2cc1NC(=O)c1cccc(C(F)(F)F)n1 (stereo partly shown)
A: 500 to 1000 nM

Q: # lookup: DC50 of CC(C)Oc1cc2nc([C@H]3CC[C@H](CN(C)C4CCN(c5ccc(C6CCC(=O)NC6=O)cc5)CC4)CC3)cn2cc1NC(=O)c1cccc(C(F)(F)F)n1 (stereo partly shown)
A: 100 to 500 nM
